Data credit: patent US10471046B2

System: S. aureus
Experiment: Minimum inhibitory concentrations (MICs) for S. aureus of exemplary compounds (Table 2)
Assay type: cell-based
Conditions: Staphylococcus aureus, minimum inhibitory concentrations for S. aureus; read-out: MICs
Assay readout: log10 MIC (log10 of the value in µg/mL)
Annotation: log10 of MIC, µg/mL basis.

These recorded examples may help you get a feel for the data.
Q. Which log10 MIC value is on record for `CC(=O)NC[C@H]1CN(c2ccc(-c3ccc(Cn4cccc4)nc3)c(F)c2)C(=O)O1` ?
A. -0.60

Q. What value of log10 MIC has been recorded for this entry: `CC(=O)NC[C@H]1CN(c2ccc(-c3ccc(Cn4cc(CNC(=O)CN)nn4)cc3)c(F)c2)C(=O)O1`
A. 0.90

Q. What does the data say about its log10 MIC? Entry: `CC(=O)NC[C@H]1CN(c2ccc(-c3ccc(CN(C)Cc4ccncc4)cc3)c(F)c2)C(=O)O1`
A. 0.00

Q. Would you mind telling me what log10 MIC value was observed for `O=C1O[C@@H](Cn2cncn2)CN1c1ccc(-c2ccc(CNCc3ccncc3)cc2)c(F)c1` ?
A. 1.51

Q. Give the measured log10 MIC of `CC(=O)NC[C@H]1CN(c2ccc(-c3ccc(S(=O)(=O)NCCc4ccccn4)cc3)c(F)c2)C(=O)O1` .
A. 0.00

Q. Would you mind telling me what log10 MIC value was observed for `CC(=O)NC[C@H]1CN(c2ccc(-c3ccc(CNC(=O)/C=C/c4cccn(C)c4=O)cc3)c(F)c2)C(=O)O1` ?
A. 0.30

Q. # query: log10 MIC of entry `CC(=O)NC[C@H]1CN(c2ccc(-c3ccc(CS(=O)(=O)c4nnnn4C)cc3)c(F)c2)C(=O)O1`
A. -0.60

Q. Reported log10 MIC, molecule `CC(=O)NC[C@H]1CN(c2ccc(-c3ccc(Cn4cnc5c(N(C)C)ncnc54)cc3)c(F)c2)C(=O)O1` : ____
A. 0.00

Q. Could you tell me which log10 MIC is on file for `CC(=O)NC[C@H]1CN(c2ccc(-c3ccc(CNCc4cccc(C#N)c4)cc3)c(F)c2)C(=O)O1` ?
A. 0.00

Q. // returns reported log10 MIC for input `CC(=O)NC[C@H]1CN(c2ccc(-c3ccc(CN4CCC(F)CC4)cc3)c(F)c2)C(=O)O1`
A. 0.00

Could you report log10 MIC for every entry in the following list?
1. CC(=O)NC[C@H]1CN(c2ccc(-c3ccc(Cn4ccc(C=O)c4)cc3)c(F)c2)C(=O)O1
2. CC(=O)NC[C@H]1CN(c2ccc(-c3ccc(CNC(=O)COc4ccc(Cl)cc4Cl)cc3)c(F)c2)C(=O)O1
3. CC(=O)NC[C@H]1CN(c2ccc(-c3ccc(NC(=O)NCc4ccccn4)cc3)c(F)c2)C(=O)O1
4. CC(=O)NC[C@H]1CN(c2ccc(-c3ccc(CNC4CNC4)cc3)c(F)c2)C(=O)O1 (racemic)
5. CC(=O)NC[C@H]1CN(c2ccc(-c3ccc(Cn4nccn4)cc3)c(F)c2)C(=O)O1
6. CC(=O)NC[C@H]1CN(c2ccc(-c3ccc([C@@H](CO)NCc4cocn4)cc3)c(F)c2)C(=O)O1
7. CC(=O)NC[C@H]1CN(c2ccc(-c3ccc(CN4CCN(CCO)CC4)cc3)c(F)c2)C(=O)O1

A.
-0.60
1.20
0.00
0.90
-0.60
0.60
0.30
